# experiment.description: qHTS Primary assay for Inhibitors of Plasmodium falciparum Dd2 growth in vitro; also: nearly all actives have a fitted effect of over 65% in size; also: potency is read from the fitted curve at half-maximal effect
# test.settings: P. falciparum Dd2 growth, SYBR Green, 72 h; series mostly up to 28.9 µM
# Description: Malaria, a parasitic disease spread to humans through the bite of a Plasmodium infected Anopheles mosquito, continues to be a global health burden affecting millions of people, with an estimated 228 million cases and 405,000 deaths in 2018. […] Malaria-vivax Assay Protocol: PROTOCOL TABLE (as described by Inglese et al., 2007) SEQUENCE No. (e.g., 1, 2, 3, etc.); […] […] Compound Management for Quantitative High-Throughput Screening. […]
Hit rate of the full screen: of about 120,000 compounds, about 5,300 (4.4%) were called active. About 22% were inconclusive and are not listed. The sample holds actives, similar compounds and a random draw of the others, so the mix is not that of the screen.
reported.endpoint: Potency

# smiles.input, reported.endpoint, result
measured = [
    ("CCOC(=O)c1c(C)oc2nc(C)nc(N3CCN(c4ccc(OC)cc4)CC3)c12", "Potency", "10 µM (active)"),
    ("COc1ccc(-c2cc(-c3ccccc3)nc3c2COc2ccc(Cl)cc2-3)cc1", "Potency", "inactive"),
    ("Cc1cccc(C(=O)NCCC2CCN(C(=O)Nc3ccc(F)cc3F)CC2)c1", "Potency", "inactive"),
    ("CCOC(=O)c1c(C)oc2nc(C)nc(N(CC(C)C)CC(C)C)c12", "Potency", "10 µM (active)"),
    ("Cc1nc(N2CCOCC2)c2c(C(=O)NCc3cccc(Cl)c3)c(C)oc2n1", "Potency", "inactive"),
]

Query string: Endpoint output: Potency of CCN(CC)c1ccc(NC(=O)CN2CCN(CC(=O)Nc3ccc(Cl)cc3)CC2)cc1 . Value?
Result string: 8.91 µM (active)

Query string: Please give the result for CN1CCN(Cc2ccc(Nc3ncc(-c4cccnc4)c4c3OCC4)cc2)CC1 too.
Result string: 10 µM (active)

Query string: Please give the result for COc1ccc(N2CCN(C(=O)c3c(C)oc4nc(C)nc(N5CCCC5)c34)CC2)cc1 too.
Result string: inactive

Query string: Please give the result for COc1ccc(-c2cc(-c3ccc(F)cc3)nc3c2COc2ccccc2-3)cc1 too.
Result string: inactive

Query string: Please give the result for Fc1ccc(-c2nc(Nc3cccc(Cl)c3)nc3c2COc2ccccc2-3)cc1 too.
Result string: 11.2 µM (active)

* * *

# experiment.description: qHTS Primary assay for Inhibitors of Plasmodium falciparum Dd2 growth in vitro; also: nearly all actives have a fitted effect of over 65% in size
# test.settings: P. falciparum Dd2 growth, SYBR Green, 72 h; series mostly up to 28.9 µM
About 5,300 (4.4%) of roughly 120,000 compounds were called active. Roughly 22% stayed inconclusive and do not appear here. Calls come from the whole dose curve; as a rule, active = well fitted inhibition curve with a large enough effect; inconclusive = small, poorly fitted or top-dose-only effect; inactive = no such curve, though single readings can be large or run the other way. Shown is part of a subset that was picked to be rich in actives.
A correct response names exactly one class from active, inactive

Query string: Please share the test call associated with CN1CC2(CCN(Cc3cn[nH]c3-c3ccccc3)CC2)CC1C(=O)N1CCOCC1 (stereo unspecified) .
Result string: inactive

Query string: Please give the result for CCOc1ccc(C(=O)c2cn(Cc3ccccc3OC)c3ccc(F)cc3c2=O)cc1 too.
Result string: active

Query string: Please give the result for COc1ccc(Cn2cc(C(=O)c3ccc(C)cc3)c(=O)c3cc(OC)c(OC)cc32)cc1 too.
Result string: active

Query string: Please give the result for CCNC(=O)c1c(C)oc2c1CN(C(=O)CCc1ccccc1)CC2 too.
Result string: inactive

Query string: Please give the result for CS(=O)(=O)N1CCC(F)(c2nc(-c3ccccc3)no2)CC1 too.
Result string: inactive

Query string: Please give the result for COCCn1ncc(N2CCC(NC(=O)C3CCC3)CC2)cc1=O too.
Result string: inactive

Query string: Please give the result for COC(=O)c1ccc(NC(=O)c2cc(S(=O)(=O)N3CCC(C)CC3)cn2C)cc1 too.
Result string: inactive

Query string: Please give the result for COc1ccccc1Nc1cc(C(=O)NCCCN(C)C2CCCCC2)c2ccccc2n1 too.
Result string: active

Query string: Please give the result for Cc1ccc2c(c1)N1C(=O)OC[C@@H]1CCN(C(=O)c1ccnc(Cl)c1)C2 too.
Result string: inactive

Query string: Please give the result for Cc1ccc([C@@H]2CN(Cc3ncc[nH]3)[C@@H]3C4CCN(CC4)[C@@H]32)cc1 too.
Result string: inactive

Query string: Please give the result for CC1(C)[C@H](Cc2cc(CC3CCCCC3)on2)C[C@@H]1NC(=O)C1CCC1 too.
Result string: active

Query string: Please give the result for CCOc1ccc(NC(=O)Cn2cc(C(=O)c3ccc(C)cc3)c(=O)c3cc4c(cc32)OCCO4)cc1 too.
Result string: inactive

Query string: Please give the result for COC(=O)c1ccc(NC(=O)c2cnn(-c3ccc(Cl)cc3)c2C2CCN(C(=O)OC(C)(C)C)CC2)cc1 too.
Result string: active

Query string: Please give the result for O=C1Cc2c(-c3ccc(Oc4ccccc4)cc3)n[nH]c2CN1CCc1ccncc1 too.
Result string: active

Query string: Please give the result for CC(C)(C)OC(=O)N1CCC(c2c(C(=O)Nc3ccc4c(c3)OCO4)cnn2-c2ccccc2)CC1 too.
Result string: active

Query string: Please give the result for O=C(N[C@H]1CCOC[C@H]1C1CCOCC1)c1cccc2nccnc12 too.
Result string: inactive

Query string: Please give the result for COc1ccc(-c2nn3c(-c4ccc(OC)cc4)nnc3c3ccccc23)cc1 too.
Result string: inactive

Query string: Please give the result for CCC(CC)C(=O)N1CC(C(=O)N(C)C)C2(CCOCC2)C1 (stereo unspecified) too.
Result string: inactive

Query string: Please give the result for COc1cc2nc(SCC(=O)Nc3ccccc3F)n3nc(-c4ccccc4)nc3c2cc1OC too.
Result string: inactive

Query string: Please give the result for O=C(Cc1ccsc1)N1CCC(c2n[nH]c(=O)n2Cc2ccc(F)cc2)CC1 too.
Result string: inactive

Query string: Please give the result for COc1cc2nc(NCC(C)c3ccccc3)n3nc(-c4ccccc4)nc3c2cc1OC (stereo unspecified) too.
Result string: active

Query string: Please give the result for O=C(NCc1ccc(F)cc1)N1CCCC(Cc2noc(-c3ccncc3)n2)C1 (stereo unspecified) too.
Result string: inactive

Query string: Please give the result for C=C(C)CN(CC)C(=O)c1c(C)oc2c1CN(Cc1cccc(F)c1)CC2 too.
Result string: active

Query string: Please give the result for COc1ccc(Cl)cc1NC(=O)CSc1nc2ccccc2c2nc(-c3ccccc3)nn12 too.
Result string: inactive

Query string: Please give the result for COc1ccc2c(c1)c(=O)c(C(=O)c1ccccc1)cn2CC(=O)Nc1ccc2c(c1)OCCO2 too.
Result string: inactive

Query string: Please give the result for N#CCCN1CCN(C(=O)c2cn3ccnc(-c4ccccc4)c3n2)CC1 too.
Result string: inactive

Query string: Please give the result for COc1ccc(N2C(=O)C3(CCCCC3)C2C(=O)NCCc2ccncc2)cc1 (stereo unspecified) too.
Result string: inactive

Query string: Please give the result for CCn1c(CN2CCC(C)CC2)nc2cc(NC(=O)c3ccccc3[N+](=O)[O-])ccc21 too.
Result string: active

Query string: Please give the result for CCC1(N2CCN(C(=O)c3ccc(C(F)(F)F)s3)CC2)CCN(C(=O)NC)C1 (stereo unspecified) too.
Result string: inactive

Query string: Please give the result for CCN(CC)C(=O)C(NC(=O)c1ccc(OC)cc1)C1CCN(C(=O)C(C)C)CC1 (stereo unspecified) too.
Result string: inactive

Query string: Please give the result for CCn1c(=O)c2ccnn2c2ccc(C(=O)NC3CCCCC3)cc21 too.
Result string: inactive

Query string: Please give the result for COc1ccc(-c2ccccc2CN)cc1 too.
Result string: active

Query string: Please give the result for COC(=O)c1ccc(NC(=O)c2cccc3c2C(=O)N(C2CCCCC2)C3)cc1 too.
Result string: inactive

Query string: Please give the result for Cn1cc(-c2ccccc2)cc1C(=O)NCc1ccc(N2CCOCC2)cc1 too.
Result string: inactive

Query string: Please give the result for CCNC(=O)N[C@H]1C[C@@H](Cc2cc(CC(C)C)on2)C1(C)C too.
Result string: inactive

Query string: Please give the result for Cc1ccc(NC(=O)c2cc3n(n2)CC(c2ccc4c(c2)OCO4)OC3)cc1C (stereo unspecified) too.
Result string: inactive

Query string: Please give the result for O=C(CCCc1ccccc1)N1CCCC(c2nc(C3CCOCC3)no2)C1 (stereo unspecified) too.
Result string: inactive

Query string: Please give the result for Cn1c(=O)c(=O)n(C)c2cc(NC(=O)c3ccccc3Br)ccc21 too.
Result string: inactive

Query string: Please give the result for O=C(NCCc1noc(C2CC2)n1)c1ccc2c(c1)OCO2 too.
Result string: inactive

Query string: Please give the result for Cc1noc(C)c1-c1cc2cc(CNC3CCOCC3)oc2c(NC2CCN(C)CC2)n1 too.
Result string: inactive

Query string: Please give the result for Cc1ccc(C(=O)CC2(O)C(=O)N(CCc3ccccc3)c3ccc(Br)cc32)cc1 (stereo unspecified) too.
Result string: active
